Molecular target: SOX18-SOX18 homodimer (Homo sapiens (Human), UniProt P35713)
Sequence (P35713 whole entry): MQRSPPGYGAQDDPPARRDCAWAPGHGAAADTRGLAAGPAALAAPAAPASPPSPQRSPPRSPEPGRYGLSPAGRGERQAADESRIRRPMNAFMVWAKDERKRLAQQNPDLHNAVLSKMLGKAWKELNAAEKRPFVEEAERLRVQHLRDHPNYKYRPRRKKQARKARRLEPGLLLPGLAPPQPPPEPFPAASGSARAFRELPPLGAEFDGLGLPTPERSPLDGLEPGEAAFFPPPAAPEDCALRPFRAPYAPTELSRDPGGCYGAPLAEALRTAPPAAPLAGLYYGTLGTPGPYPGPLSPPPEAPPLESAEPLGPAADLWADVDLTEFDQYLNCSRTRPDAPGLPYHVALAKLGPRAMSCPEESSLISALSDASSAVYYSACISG
Assay: ALPHAScreen SOX18-SOX18 homodimerization
Type: binding
Details: 5 uM
resultType: inhibitory activity in respect of SOX18-SOX18 homodimerization

{"columns": ["molecule", "system", "val"],
 "data": [
  ["COc1cc(/C=C\\c2ccc3ccccc3c2)cc(OC)c1OC [Sm41]", "SOX18-SOX18 homodimer (Homo sapiens (Human), UniProt P35713)", "some inhibitory activity"],
  ["CCN(CC)C(=O)c1c(O)cc(O)cc1CCc1ccc2ccccc2c1 [Sm26]", "SOX18-SOX18 homodimer (Homo sapiens (Human), UniProt P35713)", "some inhibitory activity"],
  ["Oc1cc(CCc2ccccc2)cc(O)c1O [Sm40, 5-phenethylbenzene-1,2,3-triol]", "SOX18-SOX18 homodimer (Homo sapiens (Human), UniProt P35713)", "some inhibitory activity"],
  ["COc1cc(/C=C\\c2ccccc2)cc(OC)c1OC [Sm37, (Z)-1,2,3-trimethoxy-5-styrylbenzene]", "SOX18-SOX18 homodimer (Homo sapiens (Human), UniProt P35713)", "some inhibitory activity"],
  ["COc1cc(C)cc(/C=C/c2ccc3ccccc3c2)c1C(=O)O [Sm34]", "SOX18-SOX18 homodimer (Homo sapiens (Human), UniProt P35713)", "some inhibitory activity"],
  ["COc1cc(Cl)cc(/C=C/c2ccc3ccccc3c2)c1C(=O)O [Sm31]", "SOX18-SOX18 homodimer (Homo sapiens (Human), UniProt P35713)", "some inhibitory activity"]
]}

Numbers sourced from patent US20240002326A1.
